Each recorded value in this set is attributed to paper PMC5540273.

system: PAK1; conditions: concentration: 1 μM,replicates: in singlicate; n = 1;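 also: KINOMEscan kinase panel screen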
Quick list: %Inh per entry.
Only the number, expressed in %, is required.

Consider the following illustrative entries.
| compound | readout | displayUnit | numericReadout |
| --- | --- | --- | --- |
| C[C@@H](Oc1cc(-n2cnc3cc(-c4cnn(C)c4)ccc32)sc1C(N)=O)c1ccccc1Cl [GSK580432] | %Inh | % | 0 |
| c1ccc(Oc2ccc(Nc3ccnc4ccc(-c5ccccn5)cc34)cc2)cc1 [GW407034] | %Inh | % | 20 |
| CCNCC(Cc1ccccc1)NC(=O)c1cc(Br)c(-c2ccnc3[nH]ccc23)s1.Cl.Cl (stereo not shown) [GSK1383280] | %Inh | % | 26 |
| N#Cc1cccc(C(=O)NC2CCN(c3ccnc(Nc4ccc(F)cc4)n3)C2)c1 (stereo not shown) [GSK1379708] | %Inh | % | 0 |
| COc1cc2c(Nc3ccc(NC(=O)c4ccccc4)cc3)ncnc2cc1OCCCN1CCOCC1 [GSK301329] | %Inh | % | 0 |
| Cn1ccc2ncnc(Oc3ccc(NC(=O)Nc4cccc(C(F)(F)F)c4)c(F)c3)c21 | %Inh | % | 14 |

Would you kindly look at the next entry?
// query // lookup %Inh for CS(=O)(=O)c1cccc(CNc2nc(Nc3ccc4c(c3)[C@@H]3C[C@@H]4CNC3=O)ncc2C(F)(F)F)c1
// result 5

###

tested on: RIPK5; conditions: concentration: 1 μM,replicates: in singlicate; n = 1
readout: %Inh (%)
Note: unit % is implicit; provide only the numeric part.

Examples from the recorded data:
| molecule | %Inh / % |
| --- | --- |
| FC(F)(F)c1cc(Br)cc(Nc2nccc(-c3cnn4ncccc34)n2)c1 [GW810578] | 15 |
| Cc1n[nH]c2cc(Nc3ccnc(Nc4cccc(CN5CCOCC5)c4)n3)ccc12 [GW682569] | 0 |
| CCCC(=O)Nc1n[nH]c2ncccc12 [SB-601436] | 0 |
| COC(=O)Nc1nc2cc(Oc3ccc(NC(=O)Nc4cc(C(F)(F)F)ccc4Cl)cc3)ccc2[nH]1.Cl [GW697465] | 0 |

// query Would you mind telling me what %Inh value was observed for Cc1ccc(CC(=O)N2CCc3cc(-c4cn(C)c5ncnc(N)c45)ccc32)cc1 [GSK2634758] ?
// result 62

// query Value lookup for %Inh; key = CS(=O)c1ccc(-c2coc3ccc(-c4n[nH]c(=O)o4)cc23)cc1 (centres unmarked)
// result 0

// query Recorded %Inh for CC(C)S(=O)(=O)N1CCN(Cc2ccc3c(c2)nc(NC(=O)c2ccsc2)n3C[C@H](O)c2ccccc2)CC1 [GW635815] , please?
// result 0

// query Query: %Inh; subject: CSc1nccc(-c2c(-c3ccc(F)cc3)ncn2CCCN2CCOCC2)n1.Cl [SB-217146]
// result 33

// query %Inh for C[C@@H](Oc1cc(-n2cnc3ccc(-c4ccncc4)cc32)sc1C(N)=O)c1ccccc1Cl [GSK483724] ?
// result 3

// query Which %Inh is listed for COc1cc2c(Nc3ccc(NC(=O)c4ccccc4)cc3)ncnc2cc1OCCCN1CCOCC1 [GSK301329] ?
// result 2

###

system: CAMK1D; conditions: concentration: 1 μM,replicates: in singlicate; n = 1
readout: %Inh (%)
Field: numeric (%). Do not append units.

As a guide, the following entries are already answered.
| compound | %Inh (%) |
| --- | --- |
| CCn1c(-c2nonc2N)nc2cncc(CNC3CCNCC3)c21.Cl [SB-747651] | 22 |
| c1ccc(Oc2ccc(Nc3ccnc4ccc(-c5ccccn5)cc34)cc2)cc1 [GW407034] | 0 |
| COc1cccc(CNC(=O)NC2CCN(c3ccnc(Nc4cc(OC)c(OC)c(OC)c4)n3)C2)c1 (centres unmarked) [GSK1379765] | 17 |
| CCN1CCN(CCCC(=O)Nc2n[nH]c3nc(-c4ccc(O)cc4)c(Br)cc23)CC1 [SB-731579] | 17 |
| O=C(NOCC1CC1)c1cc(Br)c(F)c(F)c1Nc1ccc(I)cc1Cl | 0 |
| C[C@@H]1CNc2c(sc3ccc4nc(-c5ccncc5)ccc4c23)C(=O)N1 | 25 |
| COc1cc(Nc2nccc(N3CCC(NC(=O)c4cccc(C#N)c4)C3)n2)cc(OC)c1OC (centres unmarked) [GSK1379751] | 0 |

// query Reported %Inh, compound O=C(Nc1ccc(Oc2ccc3nc(NC(=O)C4CC4)cn3n2)c(F)c1)c1cccn(-c2ccccc2)c1=O : ____
// result 14
